Cited source for all entries: patent US6998239

Molecular target: T1, human CCX CKR with N-terminal Flag epitope, stably expressed on HEK293 cells (human, UniProt Q9NPB9 1-350)
T1 construct: also called HEK293-CCX CKR cells
T1 sequence: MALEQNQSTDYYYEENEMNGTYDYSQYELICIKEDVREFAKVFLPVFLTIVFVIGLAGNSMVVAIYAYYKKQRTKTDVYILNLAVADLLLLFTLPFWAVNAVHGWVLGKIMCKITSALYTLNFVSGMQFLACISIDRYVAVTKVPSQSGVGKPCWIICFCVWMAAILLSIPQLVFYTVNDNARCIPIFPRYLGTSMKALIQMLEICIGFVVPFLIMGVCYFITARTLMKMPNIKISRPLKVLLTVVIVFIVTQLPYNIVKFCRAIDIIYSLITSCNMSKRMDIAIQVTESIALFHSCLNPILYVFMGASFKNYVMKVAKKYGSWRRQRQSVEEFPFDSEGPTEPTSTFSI
Test: displacement of 125I-ELC or 125I-TECK from CCX CKR transfectants, 200 nM cold chemokine
metricName: binding result

>>> observedmeasurement("murine ELC (ligand, UniProt O70460 26-108, looked up) GANDAEDCCLSVTQRPIPGNIVKAFRYLLNEDGCRVPAVVFTTLRGYQLCAPPDQPWVDRIIRRLKKSSAKNKGNSTRRSPVS")
"binds"
>>> observedmeasurement("mMIP-1gamma (murine macrophage inflammatory protein 1 gamma) (ligand, UniProt P51670 22-122, looked up, also called mMIP-1γ; CCF18) QITHATETKEVQSSLKAQQGLEIEMFHMGFQDSSDCCLSYNSRIQCSRFIGYFPTSGGCTRPGIIFISKRGFQVCANPSDRRVQRCIERLEQNSQPRTYKQ")
"binds"
>>> observedmeasurement("murine TECK (ligand, UniProt O35903 24-144, looked up) QGAFEDCCLGYQHRIKWNVLRHARNYHQQEVSGSCNLRAVRFYFRQKVVCGNPEDMNVKRAMRILTARKRLVHWKSASDSQTERKKSNHMKSKVENPNSTSVRSATLGHPRMVMMPRKTNN")
"binds"
>>> observedmeasurement("human TECK (thymus expressed chemokine) (ligand, UniProt O15444 24-150, looked up, 125I label where used as radioligand) QGVFEDCCLAYHYPIGWAVLRRAWTYRIQEVSGSCNLPAAIFYLPKRHRKVCGNPKSREVQRAMKLLDARNKVFAKLHHNTQTFQAGPHAVKKLSSGNSKLSSSKFSNPISSSKRNVSLLISANSGL")
"binds"
